// data source = patent US11090247B2

Items are presented alongside their recorded Degree of irritation.
- Tested on: human skin
- Procedure Summary: Skin irritation test of active ingredient (patch method, CTFA guidelines)
- Type: in vivo
- Design: key: 0–0.1 none, 0.11–0.3 weak, 0.31–0.5 moderate, ≥0.51 strong irritation
- Condition Summary: 1.0 wt %, 20 people, patch 24 hours
- Procedure: A total of 20 people (10 men and 10 women in their 20 s and 30 s) were tested for skin irritation using the patch method according to the guidelines of CTFA (The Cosmetic, Toiletry & Fragrance Association, Inc. Washington, D.C.). A filter paper disk was placed in an 8 mm diameter, 10 panels of pin chamber. After 24 hours, the pin chamber was removed, and skin conditions were visually observed. [Criteria for Skin Irritation] […]
Form: value (number only, do not type unit).

# annotated cases, reported Degree of irritation shown
Which value of Degree of irritation has been reported for O=C(O)CN1CCN(CC(=O)O)CCN(CC(=O)O)CCN(CC(=O)O)CC1 [Embodiment 5] in the records?
0.05

Likewise for C1CNCCNCCNCCN1 [Cyclen, 1,4,7,10-tetraazacyclododecane] ?
0.15

Likewise for O=C(O)c1cncc(N2CCCN(c3cncc(C(=O)O)c3)CCN(c3cncc(C(=O)O)c3)CCCN(c3cncc(C(=O)O)c3)CC2)c1 [Embodiment 11] ?
0.10

Likewise for O=C(O)c1ccc(N2CCN(c3ccc(C(=O)O)o3)CCN(c3ccc(C(=O)O)o3)CCN(c3ccc(C(=O)O)o3)CC2)o1 [Embodiment 8] ?
0.10

Likewise for O=C(O)c1ccc(N2CCCN(c3ccc(C(=O)O)o3)CCN(c3ccc(C(=O)O)o3)CCCN(c3ccc(C(=O)O)o3)CC2)o1 [Embodiment 12] ?
0.05

Likewise for O=C(O)CN(CCN(CCN(CC(=O)O)CC(=O)O)CC(=O)O)CCN(CC(=O)O)CC(=O)O [Embodiment 1] ?
0.20

Likewise for O=C(O)c1ccc(N2CCCN(c3ccc(C(=O)O)cc3)CCN(c3ccc(C(=O)O)cc3)CCCN(c3ccc(C(=O)O)cc3)CC2)cc1 [Embodiment 10] ?
0.05

Likewise for NCCNCCNCCN [Trientine, Triethylenetetramine, reference compound] ?
0.15

Likewise for O=C(O)CN1CCCN(CC(=O)O)CCN(CC(=O)O)CCCN(CC(=O)O)CC1 [Embodiment 9] ?
0.10

Likewise for O=C(O)c1ccc(N2CCN(c3ccc(C(=O)O)cc3)CCN(c3ccc(C(=O)O)cc3)CCN(c3ccc(C(=O)O)cc3)CC2)cc1 [Embodiment 6] ?
0.05

New cases:
Which value of Degree of irritation has been reported for O=C(O)c1ccc(N(CCN(CCN(c2ccc(C(=O)O)cc2)c2ccc(C(=O)O)cc2)c2ccc(C(=O)O)cc2)CCN(c2ccc(C(=O)O)cc2)c2ccc(C(=O)O)cc2)cc1 [Embodiment 2] in the records?
0.05

Likewise for O=C(O)c1ccc(N(CCN(CCN(c2ccc(C(=O)O)o2)c2ccc(C(=O)O)o2)c2ccc(C(=O)O)o2)CCN(c2ccc(C(=O)O)o2)c2ccc(C(=O)O)o2)o1 [Embodiment 4] ?
0.05

Likewise for O=C(O)c1cncc(N2CCN(c3cncc(C(=O)O)c3)CCN(c3cncc(C(=O)O)c3)CCN(c3cncc(C(=O)O)c3)CC2)c1 [Embodiment 7] ?
0
